- measurement_protocol: Mouse liver microsomal stability
- Assay type: in vitro ADME
- condition_parameters: mouse liver microsomes 0.5 mg/mL, compound 0.5 μM; read-out: Mouse Liver Microsomal Stability CLint (uL/min/mg liver)

compound	units	microsomal CLint
CC(=O)[C@H]1CC[C@H]2[C@@H]3CC[C@H]4C[C@](C)(OC(=O)CN)CC[C@]4(C)[C@H]3CC[C@]12C [Compound 111]	µL/min/mg	11.8

====

- measurement_protocol: Rat liver microsomal stability
- Format: in vitro ADME
- condition_parameters: rat liver microsomes 0.5 mg/mL, with NADPH, compound 0.5 μM, 37° C.; read-out: Rat Liver Microsomal Stability t1/2
Decision: half-life beneath 20 min gives met; half-life meeting or exceeding 20 min gives not met.

compound	category
CC(=O)[C@H]1CC[C@H]2[C@@H]3CC[C@H]4C[C@](C)(OC(=O)COC(=O)CN5CCOCC5)CC[C@]4(C)[C@H]3CC[C@]12C [Compound 200]	met
CC(=O)[C@H]1CC[C@H]2[C@@H]3CC[C@H]4C[C@](C)(OC(=O)CN)CC[C@]4(C)[C@H]3CC[C@]12C [Compound 111]	not met
CC(=O)[C@H]1CC[C@H]2[C@@H]3CC[C@H]4C[C@](C)(OC(=O)CO)CC[C@]4(C)[C@H]3CC[C@]12C [Compound 201]	not met
CC(=O)[C@H]1CC[C@H]2[C@@H]3CC[C@H]4C[C@](C)(OC(=O)COC(=O)C(C)(C)N)CC[C@]4(C)[C@H]3CC[C@]12C [Compound 218]	not met
CC(=O)[C@H]1CC[C@H]2[C@@H]3CC[C@H]4C[C@](C)(OC(=O)CNCCO)CC[C@]4(C)[C@H]3CC[C@]12C [Compound 107]	not met
